- PROTOCOL NOTES: chemical genetic growth profiling, strain panel (AID 1159580);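 note: tested at 20 µM; growth read once vehicle control cultures reached saturation at 30 °C; 1 = growth at the plate median or of vehicle wells; lower values mean less growth of the strain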
- TEST SETTINGS: S. cerevisiae deletion strains, growth OD, locus YLR342W, strain FKS1 (second series), hits give low values
Hit rate of the full screen: of about 5,500 compounds, about 2,000 (36%) were called active. Not shown: some 18% with an inconclusive outcome. This is one part of the list.

>  <MOLECULE>
CCC/C=C1\OC(=O)C2=C1CCC=C2

>  <normalized growth>
0.97

$$$$
>  <MOLECULE>
Cc1cc(OC(=O)c2c(C)cc(O)cc2O)cc(O)c1C(=O)O

>  <normalized growth>
1.01

$$$$
>  <MOLECULE>
NC(CSCSCC(N)C(=O)O)C(=O)O (stereo not drawn)

>  <normalized growth>
1.02

$$$$
